// data source = patent US5118704A

Target: α2-adrenergic receptors (Rattus norvegicus)
Construct: rat cerebral cortex membranes were employed as a source of receptors; from tissue; host or cells: cerebral cortex membranes of male Sprague Dawley rats
Sequence (P22909 1-465): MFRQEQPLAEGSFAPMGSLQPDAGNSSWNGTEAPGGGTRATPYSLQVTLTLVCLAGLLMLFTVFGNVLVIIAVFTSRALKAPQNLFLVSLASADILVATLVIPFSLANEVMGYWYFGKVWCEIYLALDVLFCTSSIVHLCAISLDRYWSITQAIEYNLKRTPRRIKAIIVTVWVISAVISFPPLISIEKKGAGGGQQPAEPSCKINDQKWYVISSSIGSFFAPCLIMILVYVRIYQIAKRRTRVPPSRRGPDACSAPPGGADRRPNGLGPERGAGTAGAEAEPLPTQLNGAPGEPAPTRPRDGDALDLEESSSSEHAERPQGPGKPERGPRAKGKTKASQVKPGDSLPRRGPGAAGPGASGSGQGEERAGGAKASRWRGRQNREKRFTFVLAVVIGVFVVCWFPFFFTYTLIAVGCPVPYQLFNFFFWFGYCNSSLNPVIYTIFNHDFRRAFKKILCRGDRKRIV
Experiment: Radioligand binding to α2-adrenergic receptors ([3H]-Para aminoclonidine, rat cerebral cortex membranes)
Settings: [3H]-Para aminoclonidine; rat cerebral cortex membranes; 30 minutes at room temperature; read-out: RECEPTOR AFFINITIES Ki, α2
measurement-name: log10(Ki) (log10 of the value in nM)
Scale: decimal log of Ki, Ki in nM.

CCCN(CCn1c(C)ccc1C)C1CCc2c(O)cccc2C1 (centres unmarked) :: 3.15
CCCN(CCCN1Cc2ccccc2C1)C1CCc2c(O)cccc2C1 (centres unmarked) :: 3.05
CCCN(CCN1Cc2ccccc2C1)C1CCc2c(O)cccc2C1 (centres unmarked) :: 3.42
CCCN(CCCN1C(=O)c2ccccc2C1=O)C1CCc2c(O)cccc2C1 (centres unmarked) :: 2.15

get_value(item= CCCN(CCN1C(=O)c2ccccc2C1=O)C1CCc2c(O)cccc2C1 (centres unmarked) , readout=log10(Ki)) returns 4.00
